# System: Corn leaf discs (variety Multitop)
# TEST_SUMMARY: Dark induced senescence of corn leaf
# Type: in vivo
# EXPERIMENTAL_CONDITIONS: Zea mays, foliar, 192 h; corn leaf discs in the dark, 23° C., 75% humidity, 8 days; 100 μM-0.0001 μM, 0.5% DMSO; image analysis; read-out: IC50 (concentration at which 50% senescence was achieved)
pIC50: −log10 of the molar value.
RESULT_TYPE: pIC50

CCOC(=O)/C(=C/OC1C=C(C)C(=O)O1)N1CCc2cc(Br)ccc21 (centres unmarked) [Compound I-72-Z] ... > 5.52
CNC(=O)/C(=C/OC1OC(=O)C(C)=C1C)n1nnc2ccccc21 (centres unmarked) [Compound I-37-Z] ... > 5.52
CCOC(=O)/C(=C/OC1C=C(C)C(=O)O1)n1c(C)c(C)c2ccccc21 (centres unmarked) [Compound I-29-Z] ... > 5.52
CCOC(=O)/C(=C/OC1C=C(C)C(=O)O1)n1ccc2cc(-c3ccccc3)ccc21 (centres unmarked) [Compound I-5-Z] ... > 5.52
CCOC(=O)/C(=C/OC1C=C(C)C(=O)O1)n1cnc2ccccc21 (centres unmarked) [Compound I-56-Z] ... > 5.52
CCOC(=O)/C(=C/OC1C=C(C)C(=O)O1)n1cc(C#N)c2ccccc21 (centres unmarked) [Compound I-25-Z] ... > 5.52
CNC(=O)/C(=C/OC1C=C(C)C(=O)O1)n1cc(C#N)c2ccccc21 (centres unmarked) [Compound I-82-Z] ... > 5.52
CCOC(=O)/C(=C/OC1OC(=O)C(C)=C1OC)n1cc(C#N)c2ccccc21 (centres unmarked) [Compound I-88-Z] ... > 5.52

Query block: Requested field: pIC50. Item: CCOC(=O)/C(=C/OC1OC(=O)C(C)=C1C)n1cnc2c(N(C)C)nc(F)nc21 (centres unmarked) [Compound I-61-Z]
Result block: > 5.52

Query block: So what does the record say about pIC50 for CCOC(=O)/C(=C/OC1OC(=O)C(C)=C1C)n1c(C)c(C)c2ccccc21 (centres unmarked) [Compound I-30-Z] ?
Result block: > 5.52

Query block: Consider the molecule CCOC(=O)/C(=C/OC1C=C(C)C(=O)O1)N1CCc2ccccc21 (centres unmarked) [Compound I-70-Z] and give its measured pIC50.
Result block: > 5.52

Query block: // returns reported pIC50 for input CCOC(=O)/C(=C/OC1C=C(C)C(=O)O1)n1c(=O)sc2ccccc21 (centres unmarked) [Compound I-64-Z]
Result block: > 5.52

Query block: Value lookup for pIC50; key = CCOC(=O)/C(=C/OC1OC(=O)C(C)=C1C)N1C(=O)C2(CC2)c2ccccc21 (centres unmarked) [Compound I-67-Z]
Result block: > 5.52

Query block: Which pIC50 is listed for CCOC(=O)/C(=C/OC1OC(=O)C(C)=C1C)n1c(=O)sc2ccccc21 (centres unmarked) [Compound I-65-Z] ?
Result block: > 5.52

Query block: Please look up its pIC50: CCOC(=O)/C(=C/OC1OC(=O)C(C)=C1C)n1c(C)nc2ccccc21 (centres unmarked) [Compound I-59-Z]
Result block: > 5.52

Query block: I would be grateful if you could share the reported pIC50 for CCOC(=O)/C(=C/OC1OC(=O)C(C)=C1C)n1cc(C)c2ccccc21 (centres unmarked) [Compound I-28-Z] .
Result block: > 5.52

Query block: Look at this molecule and give its reported pIC50. CC1=CC(O/C=C(/C(=O)N(C)C)n2nnc3ccccc32)OC1=O (centres unmarked) [Compound I-34-Z]
Result block: > 5.52
